# reported log10 GI50; entries follow
test system: NSCLC; assay: Cytotoxicity against human NSCLC cells assessed as cell growth after 48 hrs by SRB assay; type: functional
Plainly stated, the numbers are log10 of GI50 given in µM.

For orientation, consider the following solved cases.
COc1ccc(C(=O)c2nc3ccccc3n2CC(=O)c2ccc(Cl)cc2)cc1 :: 1.16
O=C(Cn1c(C(=O)c2ccccc2)nc2ccccc21)c1ccc(F)cc1 :: 1.27
O=C(Cn1c(C(=O)c2ccccc2)nc2ccccc21)c1ccccc1 :: 1.84
COc1ccc(C(=O)Cn2c(C(=O)c3ccccc3)nc3ccccc32)cc1 :: 0.97
COc1ccc(C(=O)Cn2c(C(=O)c3ccc(OC)cc3)nc3ccccc32)cc1 :: 1.18
N[C@@H](Cc1ccc(N(CCCl)CCCl)cc1)C(=O)O :: 0.83

Consider the additional compound presented here.
Input: // Input: COc1ccc(C(=O)Cn2c(C(=O)c3ccc(Cl)cc3)nc3ccccc32)cc1 . Output its log10 GI50 only.
Output: 1.27
